Test system: human PCSK9
test summary: Cell Free PCSK9 Assay (PCSK9-luciferase RNA translated in HeLa cell lysate)
Assay type: biochemical
assay context: 30° C. for 45 minutes, luciferase readout, top concentration 100 μM
pIC50: −log10 of the molar value.
Outcome label depends on pIC50 relative to 5: at/above gives label 1, below gives label 0.

Past entries and their recorded results:
molecule=O=C(c1ccc(-c2cnn3cccnc23)cc1)N(c1ncccc1Cl)[C@@H]1CCCNC1 target_entity="human PCSK9" class_label="label 1"
molecule="Cc1cccnc1N(C(=O)c1ccc(-c2cnn(C)c2-c2nnn(C(OC(=O)C(C)C)C(C)C)n2)cc1)[C@@H]1CCCNC1 (single isomer, unassigned) [Example 55]" target_entity="human PCSK9" class_label="label 0"
molecule="CCOC(=O)O[C@@H](C)OC(=O)c1c(-c2ccc(C(=O)N(c3ncccc3Cl)[C@@H]3CCCNC3)cc2)cnn1C [Example 15a]" target_entity="human PCSK9" class_label="label 1"
molecule="CCC(=O)OC(C)n1nnc(-c2c(-c3ccc(C(=O)N(c4ncccc4C)[C@@H]4CCCNC4)cc3)cnn2C)n1 (single isomer, unassigned) [Example 44]" target_entity="human PCSK9" class_label="label 1"
molecule="CCC(=O)OC(C(C)C)n1nnc(-c2c(-c3ccc(C(=O)N(c4ncccc4C)[C@@H]4CCCNC4)cc3)cnn2C)n1 (single isomer, unassigned) [Example 49]" target_entity="human PCSK9" class_label="label 0"

Problem: Determine whether this molecule has pIC50 no lower than 5: `Cn1ncc(-c2ccc(C(=O)N(c3nccc4ccccc34)[C@@H]3CCCNC3)cc2)c1C(=O)O`
Result: label 1
